Attribute: kon
tested_system: T1, Macaca fascicularis IL2Rγ extracellular domain expressed with a C-terminal myc-myc-hexahistidine tag (Macaca fascicularis)
T1 construct: whole entry is the tagged construct; also called mfIL-2Rg-MMH
T1 chain: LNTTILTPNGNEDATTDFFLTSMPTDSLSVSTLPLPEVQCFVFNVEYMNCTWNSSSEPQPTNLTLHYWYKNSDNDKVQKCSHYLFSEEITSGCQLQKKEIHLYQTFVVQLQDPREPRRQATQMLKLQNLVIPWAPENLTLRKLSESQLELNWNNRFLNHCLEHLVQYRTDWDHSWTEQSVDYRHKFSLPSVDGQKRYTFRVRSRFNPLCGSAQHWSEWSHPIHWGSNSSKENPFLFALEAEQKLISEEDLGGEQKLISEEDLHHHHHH
experiment_description: SPR Biacore 4000, anti-hFc-captured mAb, 37 C
Kindly answer with a numeric value in M⁻¹ s⁻¹, unit omitted.

Identify kon associated with the binder H4H12889P (antibody, human IgG4 S228P, kappa, V domains shown, fully human anti-IL2Rgamma mAb, human IgG4 Fc; also called REGN7257) VH: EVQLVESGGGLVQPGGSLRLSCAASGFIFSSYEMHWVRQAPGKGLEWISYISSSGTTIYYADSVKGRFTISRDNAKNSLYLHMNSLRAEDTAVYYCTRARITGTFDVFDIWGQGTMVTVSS VL: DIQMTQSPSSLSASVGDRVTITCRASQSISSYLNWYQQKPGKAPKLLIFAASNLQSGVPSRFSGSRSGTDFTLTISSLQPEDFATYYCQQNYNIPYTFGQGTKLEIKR
369000

Turning now to a further binder:
Note kon for the binder shown: H4H12886P (antibody, human IgG4 S228P, kappa, V domains shown, fully human anti-IL2Rgamma mAb, human IgG4 Fc) VH: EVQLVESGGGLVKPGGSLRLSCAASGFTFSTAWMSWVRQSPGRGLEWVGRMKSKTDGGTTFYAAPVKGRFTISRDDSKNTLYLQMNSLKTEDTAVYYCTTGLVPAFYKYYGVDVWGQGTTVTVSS VL: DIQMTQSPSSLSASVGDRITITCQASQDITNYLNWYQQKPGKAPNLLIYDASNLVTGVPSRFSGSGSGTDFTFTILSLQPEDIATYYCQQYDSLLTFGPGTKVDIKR
47800
